The reported measurements were obtained from the supplement of paper PMC8975748.

- Tested on: Saccharomyces cerevisiae BY4741 SeMeCo community
- measurementDescription: z-score of subpopulation abundance vs DMSO median, subpopulation auxotrophic for L; higher = larger share of this subpopulation than in DMSO controls
- measurementConditions: 10 µM; 24 h; SM minimal medium; subpopulation (auxotrophy): L
Counter-ions that a name gives are not always drawn.
testReadout: z-score of subpopulation abundance
Number only, please.

Example results:
1) CN(C)C(=O)Oc1cccc([N+](C)(C)C)c1 [Neostigmine Bromide]    0.65
2) Nc1nc(N)nc(NC2CC2)n1 [Cyromazine]    0.49
3) CN(C)[C@@H]1C(=O)C(C(N)=O)=C(O)[C@@]2(O)C(=O)C3=C(O)c4c(O)cccc4[C@@](C)(O)[C@H]3C[C@@H]12 [Tetracycline HCl]    -0.47
4) C=C[C@H]1CN2CC[C@H]1C[C@H]2[C@H](O)c1ccnc2ccccc12 [Cinchonidine]    0.13
5) Cc1cc(O)ccc1Cl [Chlorocresol]    -0.62
6) CCCCCCCCCCCCCCCC[n+]1ccccc1 [Cetylpyridinium Chloride]    -2.16

Inquiry: Please give measured z-score of subpopulation abundance of the following entry: CC[C@@H](C(N)=O)N1CCCC1=O [Levetiracetam]
Reply text: 0

Inquiry: Fill in z-score of subpopulation abundance for record C=C(C)[C@H]1Cc2c(ccc3c2O[C@@H]2COc4cc(OC)c(OC)cc4[C@@H]2C3=O)O1 [Rotenone (Barbasco)]
Reply text: 0.46

Inquiry: Output z-score of subpopulation abundance of CN(C)C(=O)Oc1ccc[n+](C)c1 [Pyridostigmine Bromide]
Reply text: 0.3

Inquiry: Answer with the recorded z-score of subpopulation abundance for the compound listed here: O=[N+]([O-])C(Br)(CO)CO [Bronopol]
Reply text: -0.82

Inquiry: Output measured z-score of subpopulation abundance for this item: CCN(CC)CCOC(=O)C(O)(c1ccccc1)c1ccccc1 [Benactyzine hydrochloride]
Reply text: 0.45

---

- System: Saccharomyces cerevisiae BY4741 SeMeCo community
- measurementDescription: z-score of subpopulation abundance vs DMSO median, subpopulation auxotrophic for HM; higher = larger share of this subpopulation than in DMSO controls
- measurementConditions: 10 µM; 24 h; SM minimal medium; subpopulation (auxotrophy): HM
Counter-ions that a name gives are not always drawn.
testReadout: z-score of subpopulation abundance

Here are 5 compounds together with their reported answers.
1) CN1[C@@H]2CC[C@H]1C[C@@H](OC(=O)C(CO)c1ccccc1)C2 (stereo partly specified) [Atropine sulfate monohydrate]    -0.85
2) Cc1cc(O)ccc1Cl    -0.29
3) Cc1cc(C(C#N)c2ccc(Cl)cc2)c(Cl)cc1NC(=O)c1cc(I)cc(I)c1O (stereo unspecified)    -0.13
4) CC[N+](C)(CC)CCOC(=O)C(O)(c1ccccc1)c1ccccc1 [Methylbenactyzine Bromide]    0.02
5) COc1ccc2c3c([nH]c2c1)C(C)=NCC3    3.18

# input for lookup
Inquiry: For the compound CN1[C@@H]2CC[C@H]1C[C@@H](OC(=O)[C@H](CO)c1ccccc1)C2 , give its reported z-score of subpopulation abundance.
Reply text: -0.73

---

- Test system: Saccharomyces cerevisiae BY4741 SeMeCo community
- measurementDescription: z-score of subpopulation abundance vs DMSO median, subpopulation auxotrophic for U; higher = larger share of this subpopulation than in DMSO controls
- measurementConditions: 10 µM; 24 h; SM minimal medium; subpopulation (auxotrophy): U
Where a name gives a salt, the structure may show the parent alone.
testReadout: z-score of subpopulation abundance
No unit in the answer, please; the number alone is enough.

// worked examples, z-score of subpopulation abundance included
1. COc1ccc(C(CN(C)C)C2(O)CCCCC2)cc1 (centres undefined) [Venlafaxine HCl]    -0.58
2. COc1ccc2c(c1)[C@]13CCCC[C@@H]1[C@H](C2)N(C)CC3 [Dextromethorphan hydrobromide hydrate]    0.26
3. COc1cc2c(cc1OC)C1CC(=O)C(CC(C)C)CN1CC2 (centres undefined)    -1.18

Now for the compound whose z-score of subpopulation abundance we want.
Inquiry: Write down z-score of subpopulation abundance measured for item C[CH2][Hg][S]c1ccccc1C(=O)[O-].[Na+]
Reply text: -3.69
